- Target Under Test: hERG channel (Homo sapiens)
- Construct: expressed in transfected cells; host or cells: CHO (hERG-CHO), under Geneticin selection
- Sequence (Q12809 whole entry): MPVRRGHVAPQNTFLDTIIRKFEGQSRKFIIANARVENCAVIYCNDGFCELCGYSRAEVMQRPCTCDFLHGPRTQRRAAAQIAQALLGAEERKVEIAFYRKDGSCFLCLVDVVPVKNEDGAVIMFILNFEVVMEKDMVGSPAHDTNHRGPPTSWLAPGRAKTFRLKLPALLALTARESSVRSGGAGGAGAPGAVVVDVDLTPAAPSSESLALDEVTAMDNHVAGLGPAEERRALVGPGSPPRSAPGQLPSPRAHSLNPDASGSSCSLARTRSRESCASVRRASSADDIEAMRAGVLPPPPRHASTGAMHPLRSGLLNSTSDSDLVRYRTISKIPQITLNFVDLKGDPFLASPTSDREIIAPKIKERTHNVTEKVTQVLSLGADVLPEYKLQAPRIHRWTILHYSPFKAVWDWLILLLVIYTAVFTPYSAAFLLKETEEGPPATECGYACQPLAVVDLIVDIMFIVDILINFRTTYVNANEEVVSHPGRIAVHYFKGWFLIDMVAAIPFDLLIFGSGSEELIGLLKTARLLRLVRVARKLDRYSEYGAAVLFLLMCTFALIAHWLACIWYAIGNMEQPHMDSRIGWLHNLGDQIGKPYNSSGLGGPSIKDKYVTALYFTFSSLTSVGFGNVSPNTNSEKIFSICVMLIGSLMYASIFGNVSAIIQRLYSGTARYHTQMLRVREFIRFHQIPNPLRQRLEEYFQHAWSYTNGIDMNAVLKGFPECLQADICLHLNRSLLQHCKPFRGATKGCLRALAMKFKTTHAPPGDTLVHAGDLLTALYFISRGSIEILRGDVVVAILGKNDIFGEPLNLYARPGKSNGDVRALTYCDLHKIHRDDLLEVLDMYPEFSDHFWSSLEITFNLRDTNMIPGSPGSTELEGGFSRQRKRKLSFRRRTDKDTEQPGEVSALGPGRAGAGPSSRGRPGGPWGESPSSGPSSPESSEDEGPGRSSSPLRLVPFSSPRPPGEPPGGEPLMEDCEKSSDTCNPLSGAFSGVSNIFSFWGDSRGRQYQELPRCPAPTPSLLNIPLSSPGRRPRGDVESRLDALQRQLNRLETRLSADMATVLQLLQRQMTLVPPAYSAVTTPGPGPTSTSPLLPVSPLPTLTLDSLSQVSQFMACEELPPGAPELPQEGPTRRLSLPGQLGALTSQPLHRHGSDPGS
- Assay Text: hERG channel inhibition, automated patch clamp (IonWorks HT, hERG-CHO)
- Assay type: cell-based
- Conditions Used: CHO cells expressing hERG, 10 μM compound, 600 s incubation, read-out: hERG Channel Inhibition % (at 10 μM), vehicle-subtracted values
Observable: inhibition at 600 s, 10 µM

• COc1cc(NC(=O)C(=O)c2c(C)n(Cc3ccc(Cl)cn3)c3cc(OC)c(Cl)cc23)ccn1 = < 25%
• COc1cc(NC(=O)C(=O)c2c(C)n(Cc3ncc(Cl)cc3F)c3cc(F)c(OC)cc23)ccn1 = < 25%
• CNc1ccc2c(c1)c(C(=O)C(=O)Nc1ccnc(OC)c1)c(C)n2Cc1ccc(Cl)cc1 = < 25%
• COc1cc(NC(=O)C(=O)c2c(C)n(Cc3ncc(Cl)cc3F)c3cc(Cl)c(OC)cc23)ccn1 = < 25%
• COc1cc(NC(=O)C(=O)c2c(C)n(Cc3ncc(Cl)cc3Cl)c3ccccc23)ccn1 = < 25%
• COc1ccc2c(c1)c(C(=O)C(=O)Nc1ccnc(OC)c1)c(C)n2Cc1ncc(Cl)cc1OC = < 25%
• COc1cc(NC(=O)C(=O)c2c(C)n(Cc3ncc(Cl)cc3Cl)c3cc(F)c(OC)cc23)ccn1 = < 25%
• COc1cc(NC(=O)C(=O)c2c(C)n(Cc3ccc(Cl)cn3)c3cc(Cl)c(OC)cc23)ccn1 = 25 to 50%
• COc1cc(NC(=O)C(=O)c2c(C)n(Cc3ccc(Cl)cc3)c3ccc(N(C)C(=O)OC(C)(C)C)cc23)ccn1 = < 25%
• COc1cc(NC(=O)C(=O)c2c(C)n(Cc3ccc(F)cn3)c3ccc(C)cc23)ccn1 = 25 to 50%
• COc1cc(NC(=O)C(=O)c2c(C)n(Cc3ccc(Cl)cn3)c3cc(F)c(C)cc23)ccn1 = < 25%
• COc1cc(NC(=O)C(=O)c2c(C)n(Cc3ncc(Cl)cc3Cl)c3cc(Cl)c(OC)cc23)ccn1 = < 25%
• COc1cc(NC(=O)C(=O)c2c(C)n(Cc3ccc(Cl)cc3)c3ccc(C(F)(F)F)cc23)ccn1 = 25 to 50%
• COc1cc(NC(=O)C(=O)c2c(C)n(Cc3ncc(F)cc3F)c3ccc(C)cc23)ccn1 = < 25%
• COc1cc(NC(=O)C(=O)c2c(C)n(Cc3ccc(Cl)cc3)c3cc(F)c(C)cc23)ccn1 = < 25%

Values compiled from patent US20150175599A1.
